Where do these numbers come from? They come from patent US6313094A.

# key: entry, value: Residual Activity (%)
target_or_system: chemically synthesized HIV protease (Human immunodeficiency virus type 1 group M subtype B, UniProt P12497, C555A/C583A)
Construct: The HIV protease was chemically synthesized; made in house; host or cells: chemical (peptide) synthesis, no expression host
Type: biochemical
condition_description: inhibitor 5 μM (final concentration)
Note to self: number, then unit, no commentary.

Below are worked cases with known answers.
| substance | Residual Activity (%) |
| --- | --- |
| 3-Phenylpropionyl-Msa-(2S,3S)-AHPBA-Pro-Ile-Val-NH2 [Example 62] | 3.2% |
| 3-Phenylpropionyl-Smc(O)-(2S,3S)-AHPBA-Pro-Ile-Val-NH2 [Example 61] | 90.9% |
| Furancarbonyl-Asn-(2S,3S)-AHPBA-Pro-Ile-Val-NH2 [Example 65] | 9.3% |

Problem: Note down Residual Activity (%) recorded for Thiophenecarbonyl-Asn-(2S,3S)-AHPBA-Pro-Ile-Val-NH2 [Example 67]
Solution: 4.9%

====

target_or_system: chemically synthesized HIV protease (Human immunodeficiency virus type 1 group M subtype B, UniProt P12497, C555A/C583A)
Construct: The HIV protease was chemically synthesized; made in house; host or cells: chemical (peptide) synthesis, no expression host
Type: biochemical
condition_description: inhibitor 5 μM (final concentration)
*1 amine or outer side, *2 acyl side, *3 side chain or, on linkers, in order; H or OH if unused. Where a SMILES comes first, the peptide text is derived from it. [ ]: non-standard residue; d: D form. The star is where a group is joined. X1 = O=C([C@@H](O)[C@H](Cc1ccccc1)N[*:1])[*:2]; PhAc = O=C(Cc1ccccc1)*
measurement_name: Residual Activity (%)
Note to self: number, then unit, no commentary.

Below are worked cases with known answers.
| compound | Residual Activity (%) |
| --- | --- |
| CC(C)NC(=O)[C@@H]1CCCN1C(=O)[C@@H](O)[C@H](Cc1ccccc1)NC(=O)[C@H](CC(N)=O)NC(=O)OCc1ccccc1 | 10.0% |
| NC(=O)C[C@H](NC(=O)OCc1ccccc1)C(=O)N[C@@H](Cc1ccccc1)[C@H](O)C(=O)N1CCC[C@H]1C(=O)NC1CCCCC1 | 9.6% |
| CC(C)(C)NC(=O)[C@@H]1CCCN1C(=O)[C@@H](O)[C@H](Cc1ccccc1)NC(=O)[C@H](CC(N)=O)NC(=O)OCc1ccccc1 | 3.5% |
| CC(C)(C)NC(=O)[C@@H]1CCCN1C(=O)[C@@H](O)[C@H](Cc1ccccc1)NC(=O)[C@H](CS(C)(=O)=O)NC(=O)OCc1cccc2ccccc12 | 1.5% |
| CC(C)(C)NC(=O)[C@@H]1CCCN1C(=O)[C@H](O)[C@H](Cc1ccccc1)NC(=O)[C@H](CC(N)=O)NC(=O)OCc1ccccc1 | 95.1% |

// next entry
Problem: Note down Residual Activity (%) recorded for CC[C@H](C)[C@H](NC(=O)[C@@H]1CCCN1C(=O)[C@@H](O)[C@H](Cc1ccccc1)NC(=O)[C@H](CO)NC(=O)Cc1ccccc1)C(=O)N[C@H](C(N)=O)C(C)C [Example 20] (PhAc-S[X1]PIV-NH2)
Solution: 42.8%
